Tested On: Protein Mdm4 (Homo sapiens) + E3 ubiquitin-protein ligase Mdm2 (Homo sapiens) (UniProt O15151+Q00987)
Sequence (O15151 whole entry, looked up): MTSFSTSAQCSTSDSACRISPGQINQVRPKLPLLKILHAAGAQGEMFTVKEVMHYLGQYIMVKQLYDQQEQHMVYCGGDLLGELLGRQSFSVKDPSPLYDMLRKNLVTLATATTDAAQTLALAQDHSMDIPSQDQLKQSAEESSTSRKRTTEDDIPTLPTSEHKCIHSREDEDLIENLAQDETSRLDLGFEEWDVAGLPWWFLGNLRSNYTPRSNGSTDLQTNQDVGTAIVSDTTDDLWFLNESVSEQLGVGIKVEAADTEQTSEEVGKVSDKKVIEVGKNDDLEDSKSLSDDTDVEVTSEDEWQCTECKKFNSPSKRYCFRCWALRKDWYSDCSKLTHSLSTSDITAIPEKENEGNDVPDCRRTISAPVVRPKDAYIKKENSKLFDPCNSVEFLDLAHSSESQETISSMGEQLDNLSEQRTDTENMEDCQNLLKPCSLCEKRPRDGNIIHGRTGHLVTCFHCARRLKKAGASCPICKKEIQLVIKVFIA
Sequence (Q00987 whole entry, looked up): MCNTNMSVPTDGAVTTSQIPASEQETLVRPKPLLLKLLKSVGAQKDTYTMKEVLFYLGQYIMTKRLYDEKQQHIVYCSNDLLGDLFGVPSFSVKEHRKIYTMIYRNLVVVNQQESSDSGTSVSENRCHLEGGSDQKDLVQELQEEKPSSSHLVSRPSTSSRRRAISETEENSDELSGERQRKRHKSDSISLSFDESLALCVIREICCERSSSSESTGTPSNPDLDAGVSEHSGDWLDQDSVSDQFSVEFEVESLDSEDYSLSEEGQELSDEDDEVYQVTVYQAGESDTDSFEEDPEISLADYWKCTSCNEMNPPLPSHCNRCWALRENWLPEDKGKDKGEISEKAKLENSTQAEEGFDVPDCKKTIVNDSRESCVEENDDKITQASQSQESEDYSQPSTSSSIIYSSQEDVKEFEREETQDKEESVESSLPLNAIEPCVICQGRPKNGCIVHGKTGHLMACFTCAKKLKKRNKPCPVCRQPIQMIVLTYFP
Measurement Description: inhibitors of human Mdm2-MdmX association, primary screen, cell-based, luminescence, split luciferase, SaOS-2, uHTS (AID 485346)
Conditions: SaOS-2 split-luciferase Mdm2/MdmX complementation, at 8 µM, active compounds read high
Out of some 330,000 compounds screened, about 10,000 (3%) were called active. The list comes from a sample in which actives are over-represented; it also holds close analogues and randomly drawn compounds.
Quantity Measured: inhibition (%)
Respond numerically; units are % and should not be typed.

Consider the reported inhibition for these compounds:
[
  {
    "Compound": "CCCCC(O)(CCCC)C(=O)NN(C(=O)CCl)c1ccccc1",
    "Result Unit": "%",
    "inhibition": 87.3
  },
  {
    "Compound": "COc1cccc2[nH]c(C(=O)NCCc3ccccc3)cc12",
    "Result Unit": "%",
    "inhibition": -35.8
  },
  {
    "Compound": "CC(C)(C)n1ncc2c(=O)n(Cc3c(Cl)cccc3Br)cnc21",
    "Result Unit": "%",
    "inhibition": 10.5
  },
  {
    "Compound": "COc1ccc2[nH]c3c(c2c1)CCN1C(=O)C(CC(=O)NCCc2ccccn2)C[C@H](C(=O)N2CCOCC2)[C@@]31C (stereo not given in full)",
    "Result Unit": "%",
    "inhibition": 1.71
  }
]

Fill in: inhibition of Cc1nc2nc(C)c(CCC(=O)N3CCN(c4ccccc4)CC3)c(C)n2n1 is ___ 7.55
